Data provenance is ChEMBL document CHEMBL1121402.

test system: P388; experiment: T/C expresses antileukemic activity measured as tested over that of control.; note: test concentration or dose not given here; type: functional, Mus musculus
Experimental readout: T/C
Enter a number only.

Quick one: T/C for Cc1ccc(S(=O)(=O)NCCC(=O)CCl)cc1 ? 101

If you can, please state the reported T/C value of Cc1ccc(S(=O)(=O)N[C@H](C)C(=O)CCl)cc1 . 114

Returns the measured T/C for the input compound. Input: Cc1ccc(S(=O)(=O)NC(C)C(=O)C=[N+]=[N-])cc1 (centres undefined) 120

I'd like to know its T/C. The compound in question is CCC(C)C(NS(=O)(=O)c1ccc(C)cc1)C(=O)CCl (centres undefined) 109

Consider the compound shown here: Cc1ccc(S(=O)(=O)NCCC(=O)C=[N+]=[N-])cc1 What is its recorded T/C? 119

GET /values?readout=T/C&item= Cc1ccc(S(=O)(=O)NCCCCCC(=O)CCl)cc1 116

Could you share which T/C value was measured for Cc1ccc(S(=O)(=O)NC(CC(C)C)C(=O)CCl)cc1 (centres undefined) ? 107

Consider the compound shown here: Cc1ccc(S(=O)(=O)NCCCCCC(=O)C=[N+]=[N-])cc1 What is its recorded T/C? 122

Look up T/C: Cc1ccc(S(=O)(=O)N2CCCC2C(=O)CCl)cc1 (centres undefined) 106

====

tested on: P388; test: T/C expresses antileukemic activity measured as tested over that of control; T/C >/= 120 for significant activity; type: functional, Mus musculus; note: test concentration or dose not given here
Experimental readout: T/C
Keep the answer to the number alone.

Request - read-out T/C | tested on P388 | molecule CCC(C)C(NS(=O)(=O)c1ccc(C)cc1)C(=O)C=[N+]=[N-] (centres undefined) 126

// map Cc1ccc(S(=O)(=O)N2C(=O)CCC2C(=O)CCl)cc1 (centres undefined) to recorded T/C (system: P388) 133

Tell me reported T/C for Cc1ccc(S(=O)(=O)NC(CC(C)C)C(=O)C=[N+]=[N-])cc1 (centres undefined) , tested with P388. 125

Could you share what T/C was measured for Cc1ccc(S(=O)(=O)NCC(=O)CCl)cc1 , tested on P388? 137

====

organism: Mus musculus; assay: Anticarcinoma activity of Diazomethyl Ketone against Ehrlich ascites Carcinoma pharmacological screens were reported; 5/6; type: functional
Please go through the items and note down their Survival after 10 days.
Answer with a number only.

Fill in: Survival after 10 days of CCC(C)C(NS(=O)(=O)c1ccc(C)cc1)C(=O)C=[N+]=[N-] (centres undefined) is ___ 5

For the compound Cc1ccc(S(=O)(=O)NC(C)C(=O)C=[N+]=[N-])cc1 (centres undefined) , what Survival after 10 days is on record? 5

So what's the measured Survival after 10 days for this one? Cc1ccc(S(=O)(=O)NCCCCCC(=O)CCl)cc1 5

Returns the measured Survival after 10 days for the input compound. Input: C=COC(=O)C(Cc1ccccc1)NS(=O)(=O)c1ccc(C)cc1 (centres undefined) 5

# get_value(readout='Survival after 10 days', item= Cc1ccc(S(=O)(=O)NC(Cc2ccc(O)cc2)C(=O)OCC#N)cc1 (centres undefined) ) 5

Reported Survival after 10 days for Cc1ccc(S(=O)(=O)NCCCCCC(=O)C=[N+]=[N-])cc1 : what is it? 5

Need Survival after 10 days of Cc1ccc(S(=O)(=O)N[C@H](C)C(=O)CCl)cc1 , thanks. 5

For the compound Cc1ccc(S(=O)(=O)NCCC(=O)CCl)cc1 , what Survival after 10 days is on record? 5

Would you kindly share the measured Survival after 10 days for Cc1ccc(S(=O)(=O)NCC(=O)CCl)cc1 ? 5
